target_system: pVHL19 (VCB complex: VHL with Elongin B and Elongin C) (Homo sapiens, UniProt P40337)
Sequence (P40337 54-213): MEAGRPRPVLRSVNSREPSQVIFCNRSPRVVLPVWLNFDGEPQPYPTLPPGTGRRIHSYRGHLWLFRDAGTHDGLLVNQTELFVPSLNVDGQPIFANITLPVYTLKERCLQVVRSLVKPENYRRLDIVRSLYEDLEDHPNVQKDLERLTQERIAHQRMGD
Sequence (Q15370 1-104 partner limits assumed): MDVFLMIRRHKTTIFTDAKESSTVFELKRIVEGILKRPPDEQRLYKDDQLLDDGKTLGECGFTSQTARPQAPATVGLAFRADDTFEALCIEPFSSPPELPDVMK
Sequence (Q15369 17-112 partner limits assumed): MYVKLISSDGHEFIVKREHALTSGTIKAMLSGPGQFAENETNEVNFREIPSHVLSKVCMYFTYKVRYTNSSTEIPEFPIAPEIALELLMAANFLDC
assay_method_text: ITC titration against VCB, short VHL isoform
Type: binding
run_conditions: ITC, pVHL19
Friendly reminder: α (cooperativity/avidity) below 2 is 1, at or above is 0.

>>> category_label("CC(=O)N[C@H](C(=O)N1C[C@H](O)C[C@H]1C(=O)NCc1ccc(-c2scnc2C)cc1OCCOCCOCCOCCOCCOc1cc(-c2scnc2C)ccc1CNC(=O)[C@@H]1C[C@@H](O)CN1C(=O)[C@@H](NC(C)=O)C(C)(C)C)C(C)(C)C")
1
>>> category_label("Cc1ncsc1-c1ccc(CNC(=O)[C@@H]2C[C@@H](O)CN2C(=O)[C@@H](NC(=O)COCCOCCOCCOCCOCCOCC(=O)N[C@H](C(=O)N2C[C@H](O)C[C@H]2C(=O)NCc2ccc(-c3scnc3C)cc2)C(C)(C)C)C(C)(C)C)cc1")
0
>>> category_label("Cc1ncsc1-c1ccc(CNC(=O)[C@@H]2C[C@@H](O)CN2C(=O)[C@@H](NC(=O)COCCOCCOCCOCCOCCOc2cc(-c3scnc3C)ccc2CNC(=O)[C@@H]2C[C@@H](O)CN2C(=O)[C@@H](NC(=O)C2(C#N)CC2)C(C)(C)C)C(C)(C)C)cc1")
1
>>> category_label("CC(=O)N[C@H](C(=O)N1C[C@H](O)C[C@H]1C(=O)NCc1ccc(-c2scnc2C)cc1OCCOCCOCCOCCOCCOCC(=O)N[C@H](C(=O)N1C[C@H](O)C[C@H]1C(=O)NCc1ccc(-c2scnc2C)cc1)C(C)(C)C)C(C)(C)C")
1
>>> category_label("Cc1ncsc1-c1ccc(CNC(=O)[C@@H]2C[C@@H](O)CN2C(=O)[C@@H](NC(=O)COCCOCCOCCOCC(=O)N[C@H](C(=O)N2C[C@H](O)C[C@H]2C(=O)NCc2ccc(-c3scnc3C)cc2)C(C)(C)C)C(C)(C)C)cc1")
0
>>> category_label("Cc1ncsc1-c1ccc(CNC(=O)[C@@H]2C[C@@H](O)CN2C(=O)[C@@H](NC(=O)COCCOCCOCCOCCOCC(=O)N[C@H](C(=O)N2C[C@H](O)C[C@H]2C(=O)NCc2ccc(-c3scnc3C)cc2)C(C)(C)C)C(C)(C)C)cc1")
0
